- assay.name: NCI Yeast Anticancer Drug Screen. Data for the rad14 strain (AID 159);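 note: 0% = growth of vehicle-treated control cultures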
- experimental.conditions: S. cerevisiae rad14 strain growth inhibition; at 11.0 µM; active compounds read high
This is part of a sample that, as a whole, favours compounds with a hit. Of some 79,000 tested, about 15% had one in any assay.
parameter.measured: growth inhibition (%)
Unit % implied. Number only.

# count of solved cases: 3
compound=Clc1ccc(C(c2ccc(Cl)cc2)N2CCNCC2)cc1 parameter_measured="growth inhibition" test_result=-41
compound=Cc1ccc2nc(N/N=C/c3ccc(C)s3)cc(C)c2c1 parameter_measured="growth inhibition" test_result=0
compound="CC1=NN(C(=O)CC(=O)N(C(=O)c2ccccc2)c2ccc(Cl)cc2)C(=O)C1N=Nc1ccc([N+](=O)[O-])cc1 (centres undefined)" parameter_measured="growth inhibition" test_result=23

// query State the recorded growth inhibition for this entry: O=C(/C(=C/c1ccccc1)CBr)c1ccccc1
// result 38

// query Form field: reported growth inhibition of O=C(CCCN1CCC2(CC1)OC(=O)N(c1ccccc1)C2=O)c1ccccc1
// result 74

// query Need growth inhibition, item CC(C)(C)[Si](C)(C)OCC1OC(n2cnc3c(N)ncnc32)C2OC(=S)OC12 (centres undefined)
// result 3

// query Return reported growth inhibition; argument: OC(c1ccc(Br)cc1)(c1cccs1)C1CC1 (centres undefined)
// result 27

// query Fill blank: measured growth inhibition of the compound CCc1nc2ccc(N=Nc3c(O)ccc4ccccc34)cc2[nH]1 is ____.
// result -20

// query Name the reported growth inhibition value associated with the compound O=c1oc(C(C(F)(F)F)C(F)(F)F)nc2ccccc12
// result 26

// query Reported growth inhibition for Cc1nc2ccc(Br)cc2c(=O)n1-c1ccc(NC2OCC(O)C(O)C2O)cc1 (centres undefined) : what is it?
// result 14

// query GET /values?readout=growth inhibition&item= O=C(O)NCC1CCCCC1 (tested in a mixture with another compound)
// result -5

###

- assay.name: NCI Yeast Anticancer Drug Screen. Data for the mec2-1 strain (AID 157)
- experimental.conditions: S. cerevisiae mec2-1 strain, at 3.7 µM, active compounds read high
This is part of a sample that, as a whole, favours compounds with a hit. Of some 79,000 tested, about 15% had one in any assay.
parameter.measured: growth inhibition (%)
Quick reminder: number only, in %, skip the unit.

Use the examples below as a reference point.
compound=O=c1[nH]c(=O)n(CCCO)cc1F parameter_measured="growth inhibition" test_result=-27
compound=CNC(=O)OCc1c(COC(=O)NC)c(C)n(-c2ccc(Cl)c(Cl)c2)c1C parameter_measured="growth inhibition" test_result=-22
compound=CCN(CC)c1ccc(N=Nc2cc(S(=O)(=O)O)ccc2O)c(O)c1 parameter_measured="growth inhibition" test_result=-7
compound="CC[N+]1(C)CCC(O)(/C=C/c2ccc(Cl)c(Cl)c2)C(C(=O)/C=C/c2ccc(Cl)c(Cl)c2)C1 (stereo unspecified)" parameter_measured="growth inhibition" test_result=88
compound=S=c1[nH]nc(Cc2ccccc2)c(=S)[nH]1 parameter_measured="growth inhibition" test_result=-6

--- query ---
// query Give its growth inhibition value. Item: CC1C=CN(N(C)C)C2=C1C(=O)c1cnccc1C2=O (stereo unspecified)
// result -23

###

- assay.name: NCI Yeast Anticancer Drug Screen. Data for the sgs1 strain (AID 173);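 note: 0% = growth of vehicle-only control cultures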
- experimental.conditions: S. cerevisiae sgs1 mutant, at 100.0 µM, active compounds read high
The panel holds about 79,000 compounds, 15% with a hit somewhere; the sample as a whole holds those more often. Starred links: 1 amine or outer side, 2 acyl side, 3 side chain; linkers in the order of their positions; H or OH if unused. Positions of bridges follow the written chain, without caps; N, C: chain ends. Non-standard residues stand in square brackets, D forms with d. Residues, ends and D or L forms follow the SMILES beside them. Chains are numbered I, II in the order given. Actinocin(9to1) = Cc1c2oc3c(C)ccc(C(=O)[*:1])c3nc-2c(C(=O)[*:2])c(N)c1=O; aThr = C[C@H](O)[C@H](N)C(=O)O; NMeV = CN[C@H](C(=O)O)C(C)C; Sar = CNCC(=O)O
parameter.measured: growth inhibition (%)
Unit % implied. Number only.

molecule=CN(C)CCC(=O)c1c[nH]c2ccccc12 parameter_measured="growth inhibition" unit_name=% test_result=54
molecule=Cc1c2ccncc2c(C)c2c1oc1ccccc12 parameter_measured="growth inhibition" unit_name=% test_result=95
molecule=[Cl][Pt+2][Cl].[NH-]CC1(C[NH-])CCCCC1 parameter_measured="growth inhibition" unit_name=% test_result=97

// query growth inhibition for c1ccc2cc(OCC3CO3)c(OCC3CO3)cc2c1 (configuration not stated) ?
// result 84

// query Could you tell me which growth inhibition is on file for CN1CCN(c2ccc3nc(-c4ccc5nc(-c6ccc(O)cc6)[nH]c5c4)[nH]c3c2)CC1 ?
// result 97

// query growth inhibition lookup needed for O=Cn1c2ccccc2c2ccccc21 , thanks.
// result 57

// query Looking for the measured growth inhibition of COc1ccc(CCN2C(=O)C=CC2=O)cc1OC , can you help?
// result 98

// query For Cc1c2oc3c(C)ccc(C(=O)N[C@@H]4C(=O)N[C@H](C(C)C)C(=O)N5CCC[C@H]5C(=O)N(C)CC(=O)N(C)[C@@H](C(C)C)C(=O)O[C@H]4C)c3nc-2c(C(=O)N[C@@H]2C(=O)N[C@H](C(C)C)C(=O)N3CCC[C@H]3C(=O)N(C)CC(=O)N(C)[C@@H](C(C)C)C(=O)O[C@H]2C)c(N)c1=O (I: [aThr][dV]P[Sar][NMeV] / II: [aThr][dV]P[Sar][NMeV]; ester I:1-I:C, II:1-II:C; linker I:N-II:N via Actinocin(9to1)) , what is its reported growth inhibition?
// result 99

// query Tell me the measured growth inhibition of c1cncc(C(Nc2cccc3cccnc23)Nc2cccc3cccnc23)c1 , please.
// result 62

// query # lookup: growth inhibition of CCCCCCCCCCCCCCCCCN
// result 96

// query Fill in: growth inhibition of O=C(CCCN1CCC2(CC1)OC(=O)N(c1ccccc1)C2=O)c1ccccc1 is ___
// result 75

// query Look at this molecule and give its reported growth inhibition. Cc1cnccc1N=Nc1ccc(N(C)C)cc1
// result 49

###

- assay.name: NCI Yeast Anticancer Drug Screen. Data for the rad18 strain (AID 177)
- experimental.conditions: S. cerevisiae rad18 mutant growth inhibition; at 100.0 µM
The panel holds about 79,000 compounds, 15% with a hit somewhere; the sample as a whole holds those more often. Active and inactive are the calls of the source. Rule as the data show it: active = growth inhibition above about 70%; inactive = the rest.
Select the matching outcome among 1.0 for active, 0.0 for inactive

Worked examples, 4 compounds total:
compound=BrC/C=C/C[P+](c1ccccc1)(c1ccccc1)c1ccccc1 label=1.0
compound=CCN(CC)c1cccc(Nc2nc3ccccc3s2)c1 label=0.0
compound=Cc1nc2ccccc2c(=O)n1NC(=O)c1ccc(CS)cc1 label=1.0
compound="Cc1nc2ccc(Br)cc2c(=O)n1-c1ccc(NC2OCC(O)C(O)C2O)cc1 (stereo not drawn)" label=1.0

Here's the next entry for you.
// query Outcome logged for CCCC(=O)OC(OC(=O)CCC)c1ccc([N+](=O)[O-])o1 in this assay:
// result 1.0

###

- assay.name: NCI Yeast Anticancer Drug Screen. Data for the rad50EPP+ strain (AID 151);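 note: 0% = growth of vehicle-treated control cultures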
- experimental.conditions: S. cerevisiae rad50 mutant strain, at 11.0 µM, active compounds read high
This is part of a sample that, as a whole, favours compounds with a hit. Of some 79,000 tested, about 15% had one in any assay.
Consider the following molecules and their measured growth inhibition readings.
Your answer should be a plain number; it is taken to be in %.

Sample records with growth inhibition:
molecule=Nc1nc(Nc2ccccc2)nc(Nc2ccccc2)n1 parameter_measured="growth inhibition" test_result=21
molecule=O=C(Cc1ccccc1)c1ccc(O)cc1 parameter_measured="growth inhibition" test_result=-3
molecule=COc1ccc2nc3cccc([N+](=O)[O-])c3c(NCCCO)c2c1 parameter_measured="growth inhibition" test_result=75
molecule=CCCC(=O)OC(OC(=O)CCC)c1ccc([N+](=O)[O-])o1 parameter_measured="growth inhibition" test_result=46
molecule="CCC(C)/C(C)=N/NC(N)=O (stereo unspecified)" parameter_measured="growth inhibition" test_result=-3
molecule="CC(C)OC(CCC#N)c1ccc(Cl)cc1 (stereo unspecified)" parameter_measured="growth inhibition" test_result=2
molecule=O=C(Nn1c(-c2ccccc2)nc2ccccc2c1=O)c1ccc(Cl)cc1 parameter_measured="growth inhibition" test_result=-2
molecule="CCCCCCC(CCl)c1sc(-c2csc(CCNC(=O)OC(C)(C)C)n2)nc1C(=O)OC (stereo unspecified)" parameter_measured="growth inhibition" test_result=2

// query Bench note: what growth inhibition did CC1(C)CC(=O)C(C(CC(c2ccccc2)c2cc3c(cc2O)OCO3)C2=C(O)CC(C)(C)CC2=O)=C(O)C1 (stereo unspecified) show?
// result 8

// query Which measured growth inhibition value corresponds to CC1=NN(C(=O)CC(=O)N(C(=O)c2ccccc2)c2ccc(Cl)cc2)C(=O)C1N=Nc1ccc([N+](=O)[O-])cc1 (stereo unspecified) ?
// result 39

// query Could you tell me which growth inhibition is on file for Cc1cc(N(CCOS(C)(=O)=O)CCOS(C)(=O)=O)ccc1C=O ?
// result 34
